Target: Glycogen synthase kinase-3 beta (Homo sapiens)
Sequence (P49841 whole entry): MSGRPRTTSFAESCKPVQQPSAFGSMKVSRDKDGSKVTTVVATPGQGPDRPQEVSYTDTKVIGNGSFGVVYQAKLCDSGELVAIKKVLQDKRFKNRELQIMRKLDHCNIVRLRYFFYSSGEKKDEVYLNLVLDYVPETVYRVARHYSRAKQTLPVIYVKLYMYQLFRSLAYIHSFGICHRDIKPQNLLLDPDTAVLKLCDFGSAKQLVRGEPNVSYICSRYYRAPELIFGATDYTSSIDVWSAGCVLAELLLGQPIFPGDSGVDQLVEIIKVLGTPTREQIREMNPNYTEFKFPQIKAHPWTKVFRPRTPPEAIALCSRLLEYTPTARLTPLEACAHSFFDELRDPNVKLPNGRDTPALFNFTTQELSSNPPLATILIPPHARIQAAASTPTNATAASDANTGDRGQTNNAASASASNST
Test: concentration-response blocking of human GSK3B – biochemical, luminescence, cell-free homogeneous, retest, dose response (AID 434954)
pEC50: −log10 of the molar value.
Below, each entry is listed with its recorded pEC50.
measured.metric: pEC50

{"compound": "COc1cc(C2OCC3C(c4cc(OC)c(OC)c(OC)c4)OCC23)cc(OC)c1OC (centres undefined)", "measurement.target": "Glycogen synthase kinase-3 beta (Homo sapiens)", "test.result": "< 3.52"}
{"compound": "O=C(CSc1nnc(CNC(=O)c2c(F)cccc2F)o1)NCc1ccc(F)cc1", "measurement.target": "Glycogen synthase kinase-3 beta (Homo sapiens)", "test.result": "< 3.52"}
{"compound": "COc1ccc(Nc2nc(-c3ccncc3)nc3ccccc23)cc1", "measurement.target": "Glycogen synthase kinase-3 beta (Homo sapiens)", "test.result": "< 3.52"}
{"compound": "Cn1c(SCC(=O)Nc2ccccc2)nc2ccccc2c1=O", "measurement.target": "Glycogen synthase kinase-3 beta (Homo sapiens)", "test.result": "< 3.52"}
{"compound": "c1ccc(OCCCn2nnc(-c3ccncc3)n2)cc1 [SMR000008082]", "measurement.target": "Glycogen synthase kinase-3 beta (Homo sapiens)", "test.result": 4.69}
{"compound": "O=[N+]([O-])c1cc(/C=N/n2cnnc2)ccc1N1CCCC1", "measurement.target": "Glycogen synthase kinase-3 beta (Homo sapiens)", "test.result": "< 3.52"}
{"compound": "CC(C)=CCc1c(O)cc(O)c2c(=O)c3c(CC=C(C)C)c(O)ccc3oc12", "measurement.target": "Glycogen synthase kinase-3 beta (Homo sapiens)", "test.result": "< 3.52"}
{"compound": "COc1cccc2c1cc1c(=O)n(CC(=O)NCCCc3ccccc3)nc(C)n12 [MLS001076397]", "measurement.target": "Glycogen synthase kinase-3 beta (Homo sapiens)", "test.result": "< 3.52"}
{"compound": "O=C(NCCCN1CCCC1=O)c1c(O)n2ccsc2nc1=O", "measurement.target": "Glycogen synthase kinase-3 beta (Homo sapiens)", "test.result": "< 3.52"}
{"compound": "Nc1nnc(CC(=O)NN=Cc2ccccc2OCc2ccc(F)cc2)s1 [SMR000420435]", "measurement.target": "Glycogen synthase kinase-3 beta (Homo sapiens)", "test.result": "< 3.52"}
{"compound": "Cc1[nH]c2ccccc2c1Cc1nnc(SCC(N)=O)o1", "measurement.target": "Glycogen synthase kinase-3 beta (Homo sapiens)", "test.result": "< 3.52"}
{"compound": "Nc1ccc2oc(-c3ccccc3Cl)cc(O)c-2c1=O", "measurement.target": "Glycogen synthase kinase-3 beta (Homo sapiens)", "test.result": "< 3.52"}
{"compound": "COc1ccc(/C=C2/SC(NS(=O)(=O)Cc3ccccc3)=NC2=O)cc1OC", "measurement.target": "Glycogen synthase kinase-3 beta (Homo sapiens)", "test.result": "< 3.52"}
{"compound": "O=C(Nc1ccc(N2CCN(Cc3ccccc3)CC2)cc1)c1ccccc1[N+](=O)[O-]", "measurement.target": "Glycogen synthase kinase-3 beta (Homo sapiens)", "test.result": "< 3.52"}
{"compound": "CCCN(CCC)Cc1c(C(=O)NN=Cc2ccc(C)o2)nnn1-c1nonc1N", "measurement.target": "Glycogen synthase kinase-3 beta (Homo sapiens)", "test.result": "< 3.52"}
{"compound": "COc1ccc(Nc2nc(N)c([N+](=O)[O-])c(NC3CCCCC3)n2)cc1", "measurement.target": "Glycogen synthase kinase-3 beta (Homo sapiens)", "test.result": "< 3.52"}
{"compound": "CC(C)(C)c1ccc(OCC(=O)NCCN2CCCC2)cc1", "measurement.target": "Glycogen synthase kinase-3 beta (Homo sapiens)", "test.result": "< 3.52"}
{"compound": "CC(C)CNc1nc(N)c([N+](=O)[O-])c(NC2CCCCC2)n1 [MLS001213331]", "measurement.target": "Glycogen synthase kinase-3 beta (Homo sapiens)", "test.result": 4.87}
{"compound": "Cc1ccc(-n2c(=O)c3c4c(sc3n3c(S)nnc23)CCC4)cc1 [SMR000419881]", "measurement.target": "Glycogen synthase kinase-3 beta (Homo sapiens)", "test.result": 4.35}
{"compound": "Cn1c(=O)[nH]c(=O)c2c1nc(Br)n2Cc1ccccc1Cl [MLS000031623]", "measurement.target": "Glycogen synthase kinase-3 beta (Homo sapiens)", "test.result": "< 3.52"}
{"compound": "COc1ccc(/C=C2\\Sc3ccc(C(=O)NCCCN4CCCC4)cc3N(C)C2=O)cc1OC", "measurement.target": "Glycogen synthase kinase-3 beta (Homo sapiens)", "test.result": "< 3.52"}
{"compound": "Cc1ccc(CSc2ccc(-c3cccs3)nn2)cc1", "measurement.target": "Glycogen synthase kinase-3 beta (Homo sapiens)", "test.result": "< 3.52"}
{"compound": "COc1ccccc1Oc1coc2c(CN(C)C)c(O)ccc2c1=O", "measurement.target": "Glycogen synthase kinase-3 beta (Homo sapiens)", "test.result": "< 3.52"}
{"compound": "Cc1cc(NC(=O)CCN2CCC(C)CC2)ccc1Br", "measurement.target": "Glycogen synthase kinase-3 beta (Homo sapiens)", "test.result": "< 3.52"}
{"compound": "COc1ccccc1C(=O)Oc1ccc(C(C)(C)C)cc1", "measurement.target": "Glycogen synthase kinase-3 beta (Homo sapiens)", "test.result": "< 3.52"}
{"compound": "N#CC(C#N)=Cc1cc2ccccc2nc1N1CCOCC1", "measurement.target": "Glycogen synthase kinase-3 beta (Homo sapiens)", "test.result": "< 3.52"}
{"compound": "Cc1ccc(-c2nnc(SCc3ccccc3F)o2)cc1", "measurement.target": "Glycogen synthase kinase-3 beta (Homo sapiens)", "test.result": "< 3.52"}
{"compound": "COC(=O)[C@@H]1Cc2c([nH]c3ccccc23)C2CCC(=O)N21 (some centres undefined)", "measurement.target": "Glycogen synthase kinase-3 beta (Homo sapiens)", "test.result": "< 3.52"}
{"compound": "O=C1OCCC1Sc1nnc(-c2ccc(O)cc2)o1 (centres undefined)", "measurement.target": "Glycogen synthase kinase-3 beta (Homo sapiens)", "test.result": 4.85}
{"compound": "Cc1ccc2nc(-c3ccc4c(c3)NC(=O)CO4)cn2c1", "measurement.target": "Glycogen synthase kinase-3 beta (Homo sapiens)", "test.result": "< 3.52"}
{"compound": "Nc1nc(NCc2ccco2)nc(Nc2cccc(F)c2)c1[N+](=O)[O-] [SMR000436034]", "measurement.target": "Glycogen synthase kinase-3 beta (Homo sapiens)", "test.result": "< 3.52"}
{"compound": "CCn1nc(NC(=O)CC(C)C)c2cc3cccc(C)c3nc21 [SMR000542878]", "measurement.target": "Glycogen synthase kinase-3 beta (Homo sapiens)", "test.result": "< 3.52"}
{"compound": "CCN(CC)Cc1c(C(=O)NN=Cc2cccnc2)nnn1-c1nonc1N", "measurement.target": "Glycogen synthase kinase-3 beta (Homo sapiens)", "test.result": 5.04}
{"compound": "COCCn1c(SCC(=O)Nc2ncc(Cl)c(C)c2Cl)nc2ccccc21 [MLS000097567]", "measurement.target": "Glycogen synthase kinase-3 beta (Homo sapiens)", "test.result": "< 3.52"}
{"compound": "Nc1nc(Nc2cccc(Cl)c2)nc(NCCO)c1[N+](=O)[O-]", "measurement.target": "Glycogen synthase kinase-3 beta (Homo sapiens)", "test.result": 5.76}
{"compound": "O=C1Nc2cc(C(=O)NCCCN3CCCC3)ccc2S/C1=C\\c1ccccc1", "measurement.target": "Glycogen synthase kinase-3 beta (Homo sapiens)", "test.result": 5.23}
{"compound": "COc1ccccc1Nc1nc(NCCO)nc(N)c1[N+](=O)[O-]", "measurement.target": "Glycogen synthase kinase-3 beta (Homo sapiens)", "test.result": 4.06}
{"compound": "O=Cc1cn(CCC(=O)O)nc1-c1cccc2ccccc12", "measurement.target": "Glycogen synthase kinase-3 beta (Homo sapiens)", "test.result": "< 3.52"}
{"compound": "Cn1c(=O)c2[nH]c(CN3CCN(Cc4ccccc4)CC3)nc2n(C)c1=O [SMR000120891]", "measurement.target": "Glycogen synthase kinase-3 beta (Homo sapiens)", "test.result": "< 3.52"}
{"compound": "Cc1cc(OCC(O)CNC(C)c2ccccc2)ccc1C(C)C (centres undefined)", "measurement.target": "Glycogen synthase kinase-3 beta (Homo sapiens)", "test.result": "< 3.52"}
{"compound": "c1ccc(CNc2nc(-c3cccnc3)nc3ccccc23)cc1", "measurement.target": "Glycogen synthase kinase-3 beta (Homo sapiens)", "test.result": "< 3.52"}
{"compound": "Cc1ccsc1C1NC(=O)c2c(sc3c2CCCC3)N1 (centres undefined) [MLS000027648]", "measurement.target": "Glycogen synthase kinase-3 beta (Homo sapiens)", "test.result": "< 3.52"}
{"compound": "O=Cc1ccc(N2CCCC2)c([N+](=O)[O-])c1 [SMR000383989]", "measurement.target": "Glycogen synthase kinase-3 beta (Homo sapiens)", "test.result": "< 3.52"}
{"compound": "COCc1c(C(=O)NN=Cc2ccccn2)nnn1-c1nonc1N", "measurement.target": "Glycogen synthase kinase-3 beta (Homo sapiens)", "test.result": "< 3.52"}
